System: estrogen receptor (ER)
measurement-protocol: Uterine estrogen receptor levels, hydroxyapatite assay (Example 8)
Type: in vivo, female Sprague-Dawley rats
measurement-conditions: dose-response, 10 μmol/kg + 17β-estradiol (2 × 10 μg/rat)
Record form. Attribute: Estrogen Receptor Levels, Nuclear. Fill in for each entry.

Q) Supply reported Estrogen Receptor Levels, Nuclear belonging to this molecule: Cc1cc2c(cc1Cl)oc1c(Cl)c(Cl)c(Cl)cc12 [8-Methyl-2,3,4,7-tetraCDF, 8-Methyl-2,3,4,7-tetrachlorodibenzofuran]
A) 82.8 ± 5.0 fmol/mg protein

Q) Supply reported Estrogen Receptor Levels, Nuclear belonging to this molecule: Cc1cc2c(cc1Cl)oc1cc(Cl)c(Cl)cc12 [8-methyl-2,3,7-triCDF, 8-Methyl-2,3,7-Trichlorodibenzofuran]
A) 76.8 ± 3.8 fmol/mg protein

Q) Supply reported Estrogen Receptor Levels, Nuclear belonging to this molecule: CCCc1cc(Cl)cc2c1oc1cc(Cl)cc(Cl)c12 [6-Propyl-1,3,8-Trichlorodibenzofuran]
A) 81.5 ± 4.9 fmol/mg protein

Q) Supply reported Estrogen Receptor Levels, Nuclear belonging to this molecule: Cc1cc(Cl)cc2c1oc1c(Cl)c(Cl)c(Cl)cc12 [6-Methyl-2,3,4,8-tetraCDF, 6-Methyl-2,3,4,8-tetrachlorodibenzofuran]
A) 53.8 ± 3.2 fmol/mg protein
